- assay-text: protein stability index of a GFP-peptide fusion (yeast GPS) (PSI 1-4); higher = more stable; sorted into four equal gates, so the index is relative within each strain
- condition-set: san1∆
Provide the recorded protein stability index for the entries that follow.
Numbers only.

Please review the entries below; each comes with its answer.
RVVYLKHLEDNTLLVTG [RPL6B]: 1.15
TVLFFIGVRCYEAYPNT [FAS1]: 1.66
FMHDPSVFYNIANMVLP [SIR2]: 1.85

Please go through the list and note protein stability index for each sequence.
1. QGNYVTEDIREGDQAEV [YMR129W/POM152]
2. NVNLDDYPDDSGWTPFH [NAS6]
3. SLQYINIRGNTIRQIIL [SMD1]
4. DDHNGEVWSVSWNLTGT [YGL100W/SEH1]
5. KVLEMKNLKDTASVEKA [YIL149C/MLP2]
6. SKKQRNNGSKDHGDGIL [RPN9]
7. LLDRILPKLKATGHRVL [SNF2]

3.3
2.92
2.73
2.64
3.08
3.27
2.3

State recorded protein stability index for all listed sequences.
1. ADVTHFVKPGTALDAEG [DIS3]
2. VSEVAKIMQEATQSGGV [PRE8]
3. VSITDAPKIHILDPSTE [YMR129W/POM152]
4. ELLDFLTSNLSNYSRTM [YJL039C/NUP192]

[3.04, 2.77, 1.53, 2.82]

* * *

- assay-text: protein stability index of a GFP-peptide fusion (yeast GPS) (PSI 1-4); higher = more stable; sorted into four equal gates, so the index is relative within each strain
- condition-set: pdr5∆
measured-metric: protein stability index
Give bare numbers.

Examples with answers:
IIFQQLLFWTDPRNLVN [YCG1]: 2.35
QCIVYPNCLFILKLLNG [SOH1]: 1.51
IMGFISYHNGNLKGRPY [FAS2]: 2.95
DNSFNELTDNMSDFVPI [MCD1]: 3
KGLETIDNGAESSENEA [RPC53]: 3.44

Kindly give each listed record's protein stability index.
1. NYGIVELDPECQLQNSD [RRP43]
2. DSTQLLETILEEFRNLA [SSN2]
3. TVLFFIGVRCYEAYPNT [FAS1]
4. KVGEDIAKATKEFKGIK [RPL12A]
5. LGRTGSRGGVTQVRVEF [RPS28A]

3.01
3.18
1.23
3.22
3.19

Report protein stability index for every entry below.
1. VLKFTFTGEKPIITGST [MED8]
2. VRKELRGRAVVLMGKNT [RPP0]
3. KPTSHKQLQQPKSSPLK [SIR4]
4. TAETNNKVHETSSKSSS [YDL088C/ASM4]

1. 2.18
2. 1.83
3. 3
4. 2.96

Suppose we examine the sequence SQVDPITLFVLVSVVEA [FAS2] ; what protein stability index value has been reported?
2.03

* * *

- assay-text: protein stability index of a GFP-peptide fusion (yeast GPS) (PSI 1-4); higher = more stable; sorted into four equal gates, so the index is relative within each strain
- condition-set: san1∆
measured-metric: protein stability index

Please look at the items below and tell me protein stability index for each one, in order.
1. VLTHESLHRQQQQQQQQ [DLS1]
2. SASLHTRSLKYGKLRNG [RRP4]
3. MGENEKPDVTYADVGGL [RPT3]
4. LGRTGSRGGVTQVRVEF [RPS28A]
5. QNSYADKVTSQAVNNLI [RPP1]

1: 2.62; 2: 1.08; 3: 3.28; 4: 3.31; 5: 1.68

Please supply protein stability index for each of the following items, keeping them in order.
1. EISRLKTSLSIKVENLN [SMC2]
2. RALFETKLNLHCVIEDD [RRI1]
3. ALTNELNELKAIKDKLE [YIL149C/MLP2]
4. KIRITLTSTKVKQLENV [RPS20]

1. 2.39
2. 2.8
3. 1.89
4. 1.94

* * *

- assay-text: protein stability index of a GFP-peptide fusion (yeast GPS) (PSI 1-4); higher = more stable; sorted into four equal gates, so the index is relative within each strain
- condition-set: doa10∆
Labels assigned by protein stability index range: I = under 2, II = from 2 up to 3, III = 3 and over

Consider the following illustrative entries.
LLKKELLTIEPKLKEAT [SMC2]: III
YKQAMNETSEQLVPIRL [SNF5]: III
WNKRDFMAFINACAKYG [ISW2]: I
VRVQRQKKILSIRLKVP [RPL8A]: I
VNIEPFNIDDEIKHGVF [LIN1]: III
GFEQVKIALGSPIVNVL [RRI2]: I
QFNKILPEPTEGFAADD [FAS1]: II
NLEESSKLDIYTQQQAL [RET1]: II

# bin lookup: classify ESEKLVTPEDVMTISSL [RPC82] by its protein stability index
III

Just checking, what class would you give DTKSVVGLVMFSQFWYW [RPN2] here?
II

Which protein stability index category applies to DEADKMIDLGFEDQVTN [PRP28] here?
III

Please let me know in which category the item PANVLLVQSLNDMVLEL [NNF1] belongs.
II

Exercise: read the entry LIRPSSKVIIKFLQVMQ [RPS22A] and state which class it falls under.
I

Dear colleague, I would appreciate it if you could identify the bin for GTLEGHNGWVTSLATSA [ASC1] and reply at your convenience.
II

Just checking, what class would you give QLKHTKLALAENDTNMN [SMC4] here?
III

Just checking, what class would you give LHKLELKAKNQEEEGEL [DSN1] here?
III

Which class does LVKDRKFLREVFVDGEA [RPO21] fall in?
III

Note: place this sequence into its band. Item: YGFSNKEYISRLWHTLK [SNF5]
I

Bin? VYNLALKCAERQLTSME [NUT1]
II

Sort EEEKELTEEELKTRYVG [RPN11] into one of the categories.
III

* * *

Record form. Attribute: protein stability index. Fill in for each entry.
- assay-text: protein stability index of a GFP-peptide fusion (yeast GPS) (PSI 1-4); higher = more stable; sorted into four equal gates, so the index is relative within each strain
- condition-set: san1∆
Give bare numbers.

Worked set:
GGGRVDKPLLKAGRAFH [RPL2A]: 2.95
TLLARAVAHHTDCKFIR [RPT6]: 1.86
QNMQQSLQQMQHLQQLK [GAL11]: 2.94
LQAQDRAHRIGQKNEVR [SNF2]: 2.86
ESENFKIIALQPNEISF [RGR1]: 2.54
ATQVKTDNTVDKFDFYK [RPT3]: 3.26

Go through the list and state protein stability index for each entry.
1. LQLSKTPLSIKIMVAEW [SRB8]
2. LYYDEDINVESLTQSVC [PUP2]
3. GIRIKGKIVGFDEFMNV [SME1]
4. DIYSHEYKVITSLQGTY [YMR129W/POM152]

2.69
2.46
3.23
2.65

Return reported protein stability index values for all items listed beneath this line.
1. WNKRDFMAFINACAKYG [ISW2]
2. VEDGNILVFQVSMKANK [RPL25]

1.34
2.5

* * *

- assay-text: protein stability index of a GFP-peptide fusion (yeast GPS) (PSI 1-4); higher = more stable; sorted into four equal gates, so the index is relative within each strain
- condition-set: pdr5∆
Response field class: enum, chosen by comparing protein stability index against low bracket (below 2), middle bracket (2 to below 3), high bracket (3 or more)

Take a look at these entries with their results.
LKKLKAMNDACYEKVLE [BRR2]: high bracket
IKKFAKLHMGTDDVRLA [RPL31A]: low bracket
ALPRGARTATVSKKWAA [RPL14A]: middle bracket
LKREERQGLIHQGSGGS [SMC3]: high bracket

Into which bin does this sequence go? NANTVFAGSNNQPHQSQ [YOR098C/NUP1]
high bracket

Which category fits this record: IFKDLVTVFLFMLILAL [COB]
low bracket

State the band of SIKDTQNVGQGKLQRKE [BRN1]
middle bracket

Class? Entry: GFFENIETEFLLFTVKL [IRR1]
high bracket

Band for QWSIEIVLLDDEGKEIP [TAF14] ?
middle bracket

Please indicate the class for TRAAKIAPRPLDLLRPV [RPL13A] based on its protein stability index.
high bracket

Place this sequence in its band: ASNGRNKKGRGHVKPVR [RPS26A]
high bracket

Which class does TKPGVYYVPYSKLMPVL [RPC82] fall in?
low bracket

Which band does VRKAITVLFFIGVRCYE [FAS1] fall in?
low bracket

* * *

- assay-text: protein stability index of a GFP-peptide fusion (yeast GPS) (PSI 1-4); higher = more stable; sorted into four equal gates, so the index is relative within each strain
- condition-set: doa10∆
Decide by protein stability index: equal to or exceeding 3 means Satisfied, less means Not satisfied.

VKWYHFDHNDKKLSINS [PRE7]: Not satisfied
NQPHQSQTPSFNTNSSF [YOR098C/NUP1]: Not satisfied
AHTASVGVVFGSGAANE [COR1]: Satisfied

Check the entry LDKDRKALIQRKGGKLE [RPL26A] : does protein stability index equal or exceed 3?
Not satisfied

Could you tell me if the measured protein stability index of ERYYELAFDKLNVPVFQ [ARP7] reaches 3 or more?
Not satisfied
